Molecular target: GLP-1 receptor (UniProt P43220 24-463, limits assumed)
Assay: cell-based or functional assay
Numbered stars: 1 amine (or outer) side, 2 acyl side, 3 side chain; on linkers, the order of the positions; unused ones are H or OH. Square brackets hold non-standard residues; d marks the D form. Side chains are listed from the residue outwards. Ends that are not written are not given here. * marks the point of attachment. γGlu = O=C(O)[C@H](CCC(=O)[*:2])N[*:1]; Palmitoyl = CCCCCCCCCCCCCCCC(=O)*; Orn = NCCC[C@H](N)C(=O)O; Aib = CC(C)(N)C(=O)O
# Lookup of reported EC50 at GLP-1 Receptor (cAMP luciferase reporter, HEK293) keyed by entry
Just the number in pM, nothing appended.

Sample answers from the record:
{"columns": ["binder", "measurement"],
 "data": [
  ["Ac-QGQGTFTSDK([γGlu-Palmitoyl])SKYLDERAAQDFVQWLLEGGPSSGAPPPS-NH2 [peptide of SEQ ID NO: 34]", 611],
  ["H[Aib]QGTFTSDK([γGlu-Palmitoyl])SKYLDERAAQDFVQWLLDGGPSSGAPPPS-NH2 [peptide of SEQ ID NO: 10]", 5],
  ["[dH]AQGTFTSDK([γGlu-Palmitoyl])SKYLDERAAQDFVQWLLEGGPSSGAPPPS-NH2 [peptide of SEQ ID NO: 16]", 2],
  ["[dY]AQGTFTSDK([γGlu-Palmitoyl])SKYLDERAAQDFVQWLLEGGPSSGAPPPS-NH2 [peptide of SEQ ID NO: 15]", 4],
  ["Ac-[Orn]AQGTFTSDK([γGlu-Palmitoyl])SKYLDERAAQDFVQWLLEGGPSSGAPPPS-NH2 [peptide of SEQ ID NO: 30]", 2]
]}

Look at this binder and give its reported EC50 at GLP-1 Receptor (cAMP luciferase reporter, HEK293). H[Aib]QGTFTSDK([γGlu-Palmitoyl])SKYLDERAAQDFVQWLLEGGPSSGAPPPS-NH2 [peptide of SEQ ID NO: 37] 6

Record request: EC50 at GLP-1 Receptor (cAMP luciferase reporter, HEK293) value, item Ac-[dY]GQGTFTSDK([γGlu-Palmitoyl])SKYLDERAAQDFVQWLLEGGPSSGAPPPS-NH2 [peptide of SEQ ID NO: 14] 22

# input binder: [dH]PQGTFTSDK([γGlu-Palmitoyl])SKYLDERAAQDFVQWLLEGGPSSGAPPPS-NH2 [peptide of SEQ ID NO: 27] ; wanted: its EC50 at GLP-1 Receptor (cAMP luciferase reporter, HEK293) 3
